// data source = patent US20090124587A1

# TEST_DESCRIPTION: Food effect PK study, two single oral 1000 mg doses of abiraterone acetate, fed (high fat) vs fasted
# Assay type: in vivo, human
# EXPERIMENTAL_CONTEXT: human, plasma, oral, 1000 mg, Patient 20; Fasted; sample time 48.417
QUANTITY_NAME: concentration at 48.417 h (nM)
Field format: number, assumed nM, no unit text.

Problem: Entry `C[C@]12CC[C@H](O)CC1=CC[C@@H]1[C@@H]2CC[C@]2(C)C(c3cccnc3)=CC[C@@H]12` : reported concentration at 48.417 h = ?
Solution: 40.8

---

# TEST_DESCRIPTION: Food effect PK study, two single oral 1000 mg doses of abiraterone acetate, fed (high fat) vs fasted
# Format: in vivo, human
# EXPERIMENTAL_CONTEXT: human, plasma, oral, 1000 mg, Patient 13; Fed; sample time 7.983 hr
QUANTITY_NAME: concentration at 7.983 hr (nM)
API: value field is a number in nM; no unit string.

Problem: Dear colleague, I am looking for the recorded concentration at 7.983 hr of the following compound: C[C@]12CC[C@H](O)CC1=CC[C@@H]1[C@@H]2CC[C@]2(C)C(c3cccnc3)=CC[C@@H]12 [Abiraterone]
Solution: 392

---

# TEST_DESCRIPTION: Food effect PK study, two single oral 1000 mg doses of abiraterone acetate, fed (high fat) vs fasted
# Assay type: in vivo, human
# EXPERIMENTAL_CONTEXT: human, plasma, oral, 1000 mg, Patient 14; 1000 mg; Fasted; read-out: Vz F obs
QUANTITY_NAME: Vd/F
Hi, when you answer, please include the unit after the number. Thanks!

Problem: // lookup Vd/F for C[C@]12CC[C@H](O)CC1=CC[C@@H]1[C@@H]2CC[C@]2(C)C(c3cccnc3)=CC[C@@H]12 [Abiraterone]
Solution: 18500 L

---

# TEST_DESCRIPTION: Food effect PK study, two single oral 1000 mg doses of abiraterone acetate, fed (high fat) vs fasted
# Format: in vivo, human
# EXPERIMENTAL_CONTEXT: human, plasma, oral, 1000 mg, Patient 13; Fed; sample time 1.000 hr
QUANTITY_NAME: concentration at 1 hr (nM)
Give a bare numeral; the unit nM is implied.

Problem: Field request: concentration at 1 hr | item: C[C@]12CC[C@H](O)CC1=CC[C@@H]1[C@@H]2CC[C@]2(C)C(c3cccnc3)=CC[C@@H]12 [Abiraterone]
Solution: 130

---

# TEST_DESCRIPTION: Food effect PK study, two single oral 1000 mg doses of abiraterone acetate, fed (high fat) vs fasted
# Type: in vivo, human
# EXPERIMENTAL_CONTEXT: human, plasma, oral, 1000 mg, Patient 14; Fed
QUANTITY_NAME: AUC(0-inf)
Hey, just the number and the unit after it is fine.

Problem: GET /values?readout=AUC(0-inf)&item= `C[C@]12CC[C@H](O)CC1=CC[C@@H]1[C@@H]2CC[C@]2(C)C(c3cccnc3)=CC[C@@H]12`
Solution: 11.8 µM·h

---

# TEST_DESCRIPTION: Food effect PK study, two single oral 1000 mg doses of abiraterone acetate, fed (high fat) vs fasted
# Format: in vivo, human
# EXPERIMENTAL_CONTEXT: human, plasma, oral, 1000 mg, Patient 21; Fed; sample time 48.083
QUANTITY_NAME: concentration at 48.083 h

Problem: For `C[C@]12CC[C@H](O)CC1=CC[C@@H]1[C@@H]2CC[C@]2(C)C(c3cccnc3)=CC[C@@H]12` , what is its reported concentration at 48.083 h?
Solution: 0.0189 µM

---

# TEST_DESCRIPTION: Pharmacokinetic study of abiraterone in hormone refractory prostate cancer patients, oral doses 250-2000 mg/day, fasted
# Type: in vivo, human
# EXPERIMENTAL_CONTEXT: male, human; mean; 750 mg/day abiraterone acetate oral, fasted; plasma; read-out: AUCINF_obs
QUANTITY_NAME: AUC(0-inf) (µM·h)
Value expressed in µM·h; do not type the unit.

Problem: Suppose we examine the compound C[C@]12CC[C@H](O)CC1=CC[C@@H]1[C@@H]2CC[C@]2(C)C(c3cccnc3)=CC[C@@H]12 [Abiraterone] ; what AUC(0-inf) value has been reported?
Solution: 4.54

---

# TEST_DESCRIPTION: Food effect PK study, two single oral 1000 mg doses of abiraterone acetate, fed (high fat) vs fasted
# Assay type: in vivo, human
# EXPERIMENTAL_CONTEXT: human, plasma, oral, 1000 mg, Patient 19; Fed
QUANTITY_NAME: Tmax (h)
Form entry: value (h) — number only.

Problem: Requested read-out: Tmax. Entry: `C[C@]12CC[C@H](O)CC1=CC[C@@H]1[C@@H]2CC[C@]2(C)C(c3cccnc3)=CC[C@@H]12`
Solution: 6.13

---

# TEST_DESCRIPTION: Food effect PK study, two single oral 1000 mg doses of abiraterone acetate, fed (high fat) vs fasted
# Assay type: in vivo, human
# EXPERIMENTAL_CONTEXT: human, plasma, oral, 1000 mg, Patient 14; Fed; sample time 47.700 hr
QUANTITY_NAME: concentration at 47.7 hr
A bare number is not enough; add the unit after it.

Problem: // lookup concentration at 47.7 hr for C[C@]12CC[C@H](O)CC1=CC[C@@H]1[C@@H]2CC[C@]2(C)C(c3cccnc3)=CC[C@@H]12 [Abiraterone]
Solution: 14.2 nM

---

# TEST_DESCRIPTION: Food effect PK study, two single oral 1000 mg doses of abiraterone acetate, fed (high fat) vs fasted
# Format: in vivo, human
# EXPERIMENTAL_CONTEXT: human, plasma, oral, 1000 mg, Patient 13; Fed
QUANTITY_NAME: Cmax (nM)
Numbers only; they are read as nM.

Problem: Any idea what its Cmax is? The compound is `C[C@]12CC[C@H](O)CC1=CC[C@@H]1[C@@H]2CC[C@]2(C)C(c3cccnc3)=CC[C@@H]12`
Solution: 1180

---

# TEST_DESCRIPTION: Food effect PK study, two single oral 1000 mg doses of abiraterone acetate, fed (high fat) vs fasted
# Format: in vivo, human
# EXPERIMENTAL_CONTEXT: human, plasma, oral, 1000 mg, Patient 13; 1000 mg; Fasted; read-out: Vz F obs
QUANTITY_NAME: Vd/F
For clarity, give the value followed by its unit.

Problem: If you can, please state the reported Vd/F value of `C[C@]12CC[C@H](O)CC1=CC[C@@H]1[C@@H]2CC[C@]2(C)C(c3cccnc3)=CC[C@@H]12` .
Solution: 11100 L

---

# TEST_DESCRIPTION: Food effect PK study, two single oral 1000 mg doses of abiraterone acetate, fed (high fat) vs fasted
# Format: in vivo, human
# EXPERIMENTAL_CONTEXT: human, plasma, oral, 1000 mg, Patient 15; Fed
QUANTITY_NAME: Cmax (nM)
Respond with the bare value in nM.

Problem: # input compound: `C[C@]12CC[C@H](O)CC1=CC[C@@H]1[C@@H]2CC[C@]2(C)C(c3cccnc3)=CC[C@@H]12` ; wanted: its Cmax
Solution: 1120

---

# TEST_DESCRIPTION: Food effect PK study, two single oral 1000 mg doses of abiraterone acetate, fed (high fat) vs fasted
# Assay type: in vivo, human
# EXPERIMENTAL_CONTEXT: human, plasma, oral, 1000 mg, Patient 19; Fed
QUANTITY_NAME: AUC(0-t)

Problem: AUC(0-t) lookup needed for C[C@]12CC[C@H](O)CC1=CC[C@@H]1[C@@H]2CC[C@]2(C)C(c3cccnc3)=CC[C@@H]12 [Abiraterone] , thanks.
Solution: 9.47 µM·h

---

# TEST_DESCRIPTION: Food effect PK study, two single oral 1000 mg doses of abiraterone acetate, fed (high fat) vs fasted
# Format: in vivo, human
# EXPERIMENTAL_CONTEXT: human, plasma, oral, 1000 mg, Patient 21; 1000 mg; Fed; read-out: Cl F obs (converted)
QUANTITY_NAME: clearance (mL/min)
Just the number in mL/min, nothing appended.

Problem: For `C[C@]12CC[C@H](O)CC1=CC[C@@H]1[C@@H]2CC[C@]2(C)C(c3cccnc3)=CC[C@@H]12` , what is its reported clearance?
Solution: 6180

---

# TEST_DESCRIPTION: Food effect PK study, two single oral 1000 mg doses of abiraterone acetate, fed (high fat) vs fasted
# Assay type: in vivo, human
# EXPERIMENTAL_CONTEXT: human, plasma, oral, 1000 mg, Patient 15; Fasted; sample time 2.983 hr
QUANTITY_NAME: concentration at 2.983 hr (nM)
Expressed in nM, but write only the number.

Problem: What measured concentration at 2.983 hr goes with `C[C@]12CC[C@H](O)CC1=CC[C@@H]1[C@@H]2CC[C@]2(C)C(c3cccnc3)=CC[C@@H]12` ?
Solution: 420
